Biological target: T1, Human 14-3-3γ WT (human, UniProt P61981 1-247)
T1 chain: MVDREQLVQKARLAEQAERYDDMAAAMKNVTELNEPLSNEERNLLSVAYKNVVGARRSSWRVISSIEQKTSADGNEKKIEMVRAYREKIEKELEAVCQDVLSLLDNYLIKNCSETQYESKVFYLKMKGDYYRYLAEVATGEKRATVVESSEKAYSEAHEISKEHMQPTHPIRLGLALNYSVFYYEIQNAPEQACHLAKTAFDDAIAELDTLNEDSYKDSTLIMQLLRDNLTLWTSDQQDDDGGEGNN
Assay: FP
pKd: −log10 of the molar value. Non-standard residues stand in square brackets, D forms with d. No end group written: not given here. *: point of attachment. 5FAM = O=C1OC2(c3ccc(O)cc3Oc3cc(O)ccc32)c2ccc(C(=O)*)cc21; pS = N[C@@H](COP(=O)(O)O)C(=O)O

- binder: "5FAM-RRRWKL[pS]FSIV [FAM-aidDAPK-pS318 peptide (FAM-RRRWKLpSFSIV)]"
  pKd: 4.32

Where do these numbers come from? They come from paper PMC8376927.
